All figures here come from patent US9758517B2.

Each entry below carries its measured IC50, system: JMJD2C (Homo sapiens (Human), UniProt Q9H3R0).
Sequence (Q9H3R0 2-372): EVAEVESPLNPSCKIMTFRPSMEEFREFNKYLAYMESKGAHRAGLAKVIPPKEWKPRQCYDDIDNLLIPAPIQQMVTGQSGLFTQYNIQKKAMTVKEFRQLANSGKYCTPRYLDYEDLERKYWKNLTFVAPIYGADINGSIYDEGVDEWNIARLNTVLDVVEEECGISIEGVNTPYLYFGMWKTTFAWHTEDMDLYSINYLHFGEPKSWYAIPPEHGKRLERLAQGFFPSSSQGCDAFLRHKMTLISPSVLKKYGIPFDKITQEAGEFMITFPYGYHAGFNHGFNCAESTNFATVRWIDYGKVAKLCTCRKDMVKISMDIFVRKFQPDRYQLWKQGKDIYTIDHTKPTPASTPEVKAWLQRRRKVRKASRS

IC50 in this record for "Cn1nc2ccc(Cl)cc2c1-c1cc2nccc(C(=O)O)c2[nH]1" : 1000 to 10000 nM

IC50 in this record for "Cn1nc(-c2cc3nccc(C(=O)O)c3[nH]2)c2ccc(Cl)cc21" : 100 to 1000 nM

IC50 in this record for "COc1ccc2c(-c3cc4nccc(C(=O)O)c4[nH]3)n(C)nc2c1" : 100 to 1000 nM

----------
pIC50: −log10 of the molar value.
Assign pIC50 to each entry below.

The reported pIC50 value, JMJD2C (Homo sapiens (Human)), for "CCn1nc(-c2cc3nccc(C(=O)O)c3[nH]2)c2ccc(Cl)cc21" reads 5.00 to 6.00

The reported pIC50 value, JMJD2C (Homo sapiens (Human)), for "O=C(O)c1ccnc2cc(-c3nn(CC(F)(F)F)c4cc(Cl)ccc34)[nH]c12" reads 5.00 to 6.00

The reported pIC50 value, JMJD2C (Homo sapiens (Human)), for "CN(c1ccccc1)c1cccc2c(-c3cc4nccc(C(=O)O)c4[nH]3)n(C)nc12" reads 5.00 to 6.00

The reported pIC50 value, JMJD2C (Homo sapiens (Human)), for "Cn1nc2ccc(C3CC3)cc2c1-c1cc2nccc(C(=O)O)c2[nH]1" reads 6.00 to 7.00

The reported pIC50 value, JMJD2C (Homo sapiens (Human)), for "Cn1nc2cc(Cl)ccc2c1-c1cc2nccc(C(=O)O)c2[nH]1" reads 6.00 to 7.00

The reported pIC50 value, JMJD2C (Homo sapiens (Human)), for "Cn1nc(-c2cc3nccc(C(=O)O)c3[nH]2)c2ccc(F)cc21" reads 6.00 to 7.00

The reported pIC50 value, JMJD2C (Homo sapiens (Human)), for "O=C(O)c1ccnc2cc(-c3c4cc(Cl)ccc4nn3CCN3CCCC3)[nH]c12" reads 6.00 to 7.00

The reported pIC50 value, JMJD2C (Homo sapiens (Human)), for "O=C(O)c1ccnc2cc(-c3nn(CCN4CCOCC4)c4ccc(F)cc34)[nH]c12" reads 5.00 to 6.00

The reported pIC50 value, JMJD2C (Homo sapiens (Human)), for "Cn1nc2ccc(C(F)(F)F)cc2c1-c1cc2nccc(C(=O)O)c2[nH]1" reads 5.00 to 6.00

The reported pIC50 value, JMJD2C (Homo sapiens (Human)), for "O=C(O)c1ccnc2cc(-c3c4ccc(Cl)cc4nn3CC3CC3)[nH]c12" reads 5.00 to 6.00

The reported pIC50 value, JMJD2C (Homo sapiens (Human)), for "Cn1nc2ccc(OC(F)(F)F)cc2c1-c1cc2nccc(C(=O)O)c2[nH]1" reads 5.00 to 6.00

The reported pIC50 value, JMJD2C (Homo sapiens (Human)), for "Cn1nc(-c2cc3nccc(C(=O)O)c3[nH]2)c2cc(F)ccc21" reads 6.00 to 7.00

The reported pIC50 value, JMJD2C (Homo sapiens (Human)), for "O=C(O)c1ccnc2cc(-c3nn(CCN4CCCC4)c4ccc(Cl)cc34)[nH]c12" reads 6.00 to 7.00

The reported pIC50 value, JMJD2C (Homo sapiens (Human)), for "Cn1nc(-c2cc3nccc(C(=O)O)c3[nH]2)c2ccccc21" reads 6.00 to 7.00

The reported pIC50 value, JMJD2C (Homo sapiens (Human)), for "COc1ccc2nn(C)c(-c3cc4nccc(C(=O)O)c4[nH]3)c2c1" reads 6.00 to 7.00

The reported pIC50 value, JMJD2C (Homo sapiens (Human)), for "CCn1nc2cc(Cl)ccc2c1-c1cc2nccc(C(=O)O)c2[nH]1" reads 5.00 to 6.00

The reported pIC50 value, JMJD2C (Homo sapiens (Human)), for "CN(c1ccccc1)c1ccc2c(-c3cc4nccc(C(=O)O)c4[nH]3)n(C)nc2c1" reads 6.00 to 7.00

The reported pIC50 value, JMJD2C (Homo sapiens (Human)), for "O=C(O)c1ccnc2cc(-c3nn(CC4CC4)c4cc(Cl)ccc34)[nH]c12" reads 5.00 to 6.00
